Here's a batch of compounds along with measured pKi for Mu-type opioid receptor (Homo sapiens).
Entry type: numeric. Quantity: pKi, the -log10 of concentration in molar units.

// solved cases for pKi follow
CCCCCN1C[C@H](C)[C@](C)(c2cccc(O)c2)C[C@H]1CCC = 6.42
CCCCCCCN1C[C@H](C)[C@](C)(c2cccc(O)c2)C[C@H]1CCC = 7.89

Q: // returns reported pKi for input "C[C@H]1CN(CCc2ccccc2)[C@H](Cc2ccccc2)C[C@@]1(C)c1cccc(O)c1"
Result: 6.54

Q: "CCC[C@@H]1C[C@@](C)(c2cccc(O)c2)[C@@H](C)CN1Cc1ccccc1" ?
Result: 6.15
